Assay: Tmax after oral dosing
Type: in vivo, Beagle dog
Details: dog, in vivo, 1 mg/kg body weight, laboratory Beagle dogs, read-out: approximate Tmax
measurement name: Tmax

Entry under review: COc1cc(Nc2nn([C@H]3COCC[C@@H]3C#N)cc2C(N)=O)cc(F)n1 (single isomer, unassigned) . Reported Tmax? ~2 h
